Tested on: MDA-MB-468
protocol: Cytotoxicity against human MDA-MB-468 cells assessed as inhibition of cell viability at 10 uM
Assay type: functional

sample smiles | unit text | inhibition at 10 µM
Fc1ccc(COc2ccc(Cl)cc2CNCC2CCNCC2)cc1 | % | 38.8
COc1ccc(Cl)cc1CNCc1ccc2c(c1)OCO2 | % | -4.03
NC(=O)COc1ccc(Cl)cc1CNCCc1ccccc1 | % | -8.1
COc1cc(/C=C/C(=O)CC(=O)/C=C/c2ccc(O)c(OC)c2)ccc1O | % | 3.88
NS(=O)(=O)c1ccc(NCc2cc(Cl)ccc2OCc2ccccc2)cc1 | % | 27.7
